All values here come from PubChem BioAssay AID1626.

experiment: M. tuberculosis H37Rv growth inhibitors, H37Rv strain (AID 1626);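 note: bacteria incubated seven days before Alamar blue readout; 0% = bacteria only wells and 100% = bacteria with antibiotic wells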
settings: stronger effect = higher value, concentration not given here
Screen size: about 220,000 compounds; about 2,000 (0.91%) were called active. Inconclusive results (about 2%) are left out. Only a sample is shown. Entries with a potency or affinity are not part of this list.
Entries and their measured inhibition follow.
Write the value in % as a bare number.

{"columns": ["compound", "inhibition (%)"],
 "data": [
  ["COc1cc(CNCCCCO)ccc1OCc1ccccc1F", 0.63]
]}

Q: May I ask what inhibition has been recorded for O=C(CC(Nc1ccccc1Cl)C(=O)OCC(=O)c1cccs1)c1ccccc1 (stereo unspecified) ?
A: -5.28

Q: Try this compound next: O=C(CC(Nc1cccc(Cl)c1Cl)C(=O)OCC(=O)c1cccs1)c1ccccc1 (stereo unspecified)
A: -5.78
